target: Pyruvate kinase PKLR (Homo sapiens); experiment: Inhibition of PKL (unknown origin) at 10 uM for 30 mins by Kinase-Glo Max reagent based luminescence assay
Sequence (P30613 whole entry, looked up): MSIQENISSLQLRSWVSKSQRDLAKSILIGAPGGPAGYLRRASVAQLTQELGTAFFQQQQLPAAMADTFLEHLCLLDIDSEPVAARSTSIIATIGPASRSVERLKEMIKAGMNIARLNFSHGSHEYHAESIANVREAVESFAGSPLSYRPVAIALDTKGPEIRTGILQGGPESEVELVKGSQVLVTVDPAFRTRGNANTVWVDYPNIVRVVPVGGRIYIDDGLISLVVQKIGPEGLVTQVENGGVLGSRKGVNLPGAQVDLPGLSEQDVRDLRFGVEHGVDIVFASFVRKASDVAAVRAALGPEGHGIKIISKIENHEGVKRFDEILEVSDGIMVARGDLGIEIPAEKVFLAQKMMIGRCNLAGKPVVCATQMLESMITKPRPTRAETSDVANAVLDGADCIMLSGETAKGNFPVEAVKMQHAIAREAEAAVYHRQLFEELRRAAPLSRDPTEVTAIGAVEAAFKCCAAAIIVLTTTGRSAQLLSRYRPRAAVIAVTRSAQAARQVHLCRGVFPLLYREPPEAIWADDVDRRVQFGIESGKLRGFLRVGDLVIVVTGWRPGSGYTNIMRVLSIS
# inhibition >= 90% gives Criterion met, anything below gives Criterion not met

# Compound, Target of assay, Qualitative label
measured = [
    ("O=C1c2ccccc2C(=O)c2c1cc(-c1ccc(O)cc1)c(O)c2O", "Pyruvate kinase PKLR (Homo sapiens)", "Criterion not met"),
    ("O=C1c2ccccc2C(=O)c2c1cc(S(=O)(=O)N1CCC(C(=O)O)CC1)c(O)c2O", "Pyruvate kinase PKLR (Homo sapiens)", "Criterion not met"),
    ("O=C1c2ccccc2C(=O)c2cc(S(=O)(=O)N3CCCC(C(=O)O)C3)c(O)cc21 (stereo not given)", "Pyruvate kinase PKLR (Homo sapiens)", "Criterion not met"),
    ("O=C(O)CCCCNS(=O)(=O)c1cc2c(c(O)c1O)C(=O)c1ccccc1C2=O", "Pyruvate kinase PKLR (Homo sapiens)", "Criterion met"),
    ("O=C(O)Cc1ccc(CNc2cc3c(cc2O)C(=O)c2ccccc2C3=O)cc1C(=O)O", "Pyruvate kinase PKLR (Homo sapiens)", "Criterion met"),
    ("O=C(O)CC[C@H](NC(=O)N1CCN(S(=O)(=O)c2cc3c(c(O)c2O)C(=O)c2ccccc2C3=O)CC1)C(=O)O", "Pyruvate kinase PKLR (Homo sapiens)", "Criterion met"),
    ("COC[C@H](NS(=O)(=O)c1cc2c(c(O)c1O)C(=O)c1ccccc1C2=O)C(=O)O", "Pyruvate kinase PKLR (Homo sapiens)", "Criterion met"),
    ("O=C(O)CNC(=O)CNS(=O)(=O)c1cc2c(c(O)c1O)C(=O)c1ccccc1C2=O", "Pyruvate kinase PKLR (Homo sapiens)", "Criterion met"),
    ("O=C1c2ccccc2C(=O)c2c1cc(S(=O)(=O)N[C@@H](CO)C(=O)O)c(O)c2O", "Pyruvate kinase PKLR (Homo sapiens)", "Criterion met"),
    ("O=C(O)CC[C@H](NC(=O)C1CCN(S(=O)(=O)c2cc3c(c(O)c2O)C(=O)c2ccccc2C3=O)CC1)C(=O)O", "Pyruvate kinase PKLR (Homo sapiens)", "Criterion not met"),
    ("O=C(O)CCNS(=O)(=O)c1cc2c(c(O)c1O)C(=O)c1ccccc1C2=O", "Pyruvate kinase PKLR (Homo sapiens)", "Criterion met"),
    ("O=C(O)Cc1ccc(CNS(=O)(=O)c2cc3c(c(O)c2O)C(=O)c2ccccc2C3=O)cc1C(=O)O", "Pyruvate kinase PKLR (Homo sapiens)", "Criterion met"),
    ("O=C(O)CCCNS(=O)(=O)c1cc2c(c(O)c1O)C(=O)c1ccccc1C2=O", "Pyruvate kinase PKLR (Homo sapiens)", "Criterion met"),
    ("O=C1c2ccccc2C(=O)c2c1cc(-c1ccc(O)c(O)c1)c(O)c2O", "Pyruvate kinase PKLR (Homo sapiens)", "Criterion not met"),
    ("O=C(O)c1cc2c(c(O)c1O)C(=O)c1ccccc1C2=O", "Pyruvate kinase PKLR (Homo sapiens)", "Criterion met"),
    ("O=C(O)CNS(=O)(=O)c1cc2c(c(O)c1O)C(=O)c1ccccc1C2=O", "Pyruvate kinase PKLR (Homo sapiens)", "Criterion met"),
    ("O=C1c2ccccc2C(=O)c2cc(S(=O)(=O)O)c(O)cc21", "Pyruvate kinase PKLR (Homo sapiens)", "Criterion met"),
    ("O=C(O)Cc1ccc(CNc2cc3c(c(O)c2O)C(=O)c2ccccc2C3=O)cc1C(=O)O", "Pyruvate kinase PKLR (Homo sapiens)", "Criterion not met"),
    ("O=C(O)Cc1ccc(CNC(=O)Nc2cc3c(c(O)c2O)C(=O)c2ccccc2C3=O)cc1C(=O)O", "Pyruvate kinase PKLR (Homo sapiens)", "Criterion not met"),
]
